targetUnderTest: recombinant human neuronal calcium channel α1B-1α2bβ1-2 (human), Q00975
measure: pKd
Just the number, please; pKd means minus log10 of the concentration in mol/L.

Lab note: CKSPGSSCSPTSYNCCRSCNPYTKRCYG (modifications not checked) [ω-CgTx, P01522 46-73] gave pKd of 10.26
